# Protocol: recombinant barcode read abundance after kanamycin selection (control-corrected) (log10(CPM+1)); higher = more efficient recombination; sequences stand for … in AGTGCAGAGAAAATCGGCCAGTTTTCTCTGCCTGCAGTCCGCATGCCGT…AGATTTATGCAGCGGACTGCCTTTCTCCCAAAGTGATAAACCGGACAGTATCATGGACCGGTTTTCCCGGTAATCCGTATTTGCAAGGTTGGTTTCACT; site = the 11-nt target;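 further: IS621 recombinase and bridge RNA in Escherichia coli cells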
Recorded recombinant barcode read abundance (log10) for the following sequences
Reply: number alone, nothing else.

- CGTCACCCTTGGGTTCTAACCTGTTGCCT (site CGTCAGCCTAG): 0.12
- CGCGATCCTTGGGTTCTAACCTGTTGCCT (site CGCGATCCTAG): 0.431
- AGTCTAGCTTGGGTTCTAACCTGTTGCCC (site AGTCTAGCTTG): 0.149
- ATGGGCCCTTGGGTTCTAACCTGTTGCTC (site ATGGGCCCTCA): 1.04
- TAACGTACTTGGGTTCTAACCTGTTGCTT (site TAAGGTACTAA): 0.109
- GACTGGGCTTGGGTTCTAACCTGTTGCTG (site GACTGGGCTCA): 1.58
- CGAACATCTTGGGTTCTAACCTGTTGCTT (site CGAACATCTAA): 0.144
- GTATGAGCTTGGGTTCTAACCTGTTGCTG (site ATTTGAGCTCA): 0.288

## Task Entry GACCCTACTTGGGTTCTAACCTGTTGCCT (site GACCCTACTAG) has what recombinant barcode read abundance (log10)?
## Result 0.516

## Task Entry CCATACCCTTGGGTTCTAACCTGTTGCTA (site ATCATAGCTGC) has what recombinant barcode read abundance (log10)?
## Result 0.019

## Task Entry TAAAAGCCTTGGGTTCTAACCTGTTGCCT (site TAAAAGTCTAG) has what recombinant barcode read abundance (log10)?
## Result 0.224

## Task Entry ATCGTTGCTTGGGTTCTAACCTGTTGCCT (site ATCGTTGCTAG) has what recombinant barcode read abundance (log10)?
## Result 0.657

## Task Entry CTACGAACTTGGGTTCTAACCTGTTGCGG (site TGGACCTCTTG) has what recombinant barcode read abundance (log10)?
## Result 0.181

###

Recorded recombinant barcode read abundance (log10) for the following sequences
# Protocol: recombinant barcode read abundance after kanamycin selection (control-corrected) (log10(CPM+1)); higher = more efficient recombination; sequences stand for … in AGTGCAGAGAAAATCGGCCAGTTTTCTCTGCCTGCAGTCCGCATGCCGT…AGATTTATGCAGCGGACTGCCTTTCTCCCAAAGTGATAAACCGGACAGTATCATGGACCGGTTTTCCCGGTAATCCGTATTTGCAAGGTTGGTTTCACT; site = the 11-nt target
Reply: number alone, nothing else.

Here are 3 sequences together with their reported answers.
• GGAGTCACTTGGGTTCTAACCTGTTGCGG (site GGAGTCACTCC) = 2.69
• CCATCCTCTTGGGTTCTAACCTGTTGCTT (site CAATCCTCTAA) = 0.04
• ATGACTACTTGGGTTCTAACCTGTTGCTA (site ATGACTACTGA) = 0.136

## Task Entry GAGGACTCTTGGGTTCTAACCTGTTGCCC (site GAGGACTCTAG) has what recombinant barcode read abundance (log10)?
## Result 2

## Task Entry TCCAGTCCTTGGGTTCTAACCTGTTGCTG (site TCCAGTCCTCA) has what recombinant barcode read abundance (log10)?
## Result 0.285

## Task Entry TAGGCTACTTGGGTTCTAACCTGTTGCAT (site TAGGCTACTTT) has what recombinant barcode read abundance (log10)?
## Result 0.00693
